B1: Lysine-specific demethylase 2B, residues 656 to 722; numbered along this chain, Q8NHM5 (parent)
chain: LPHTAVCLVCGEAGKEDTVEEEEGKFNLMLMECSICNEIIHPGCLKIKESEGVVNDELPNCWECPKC

variants of: B1; assay: abundance fitness (aPCA) (normalised: wild type 0, dead -1); higher = more abundant; growth selection in yeast, the domain comes from the species named; conditions: Homo sapiens
Bucketed by reported abundance fitness, buckets being bin 1 (below -0.4), bin 2 (-0.4 to below -0.2), bin 3 (-0.2 or more)

Item sequence	Answer label
LPHTAVCLVCGEAGKEDTVEEKEGKFNLMLMECSICNEIIHPGCLKIKESEGVVNDELPNCWECPKC [E22K]	bin 3
LPHTAVCLVCGEAGKEDTVEEEEGKFNLMLMECSICNEEIHPGCLKIKESEGVVNDELPNCWECPKC [I39E]	bin 2
LPHTARCLVCGEAGKEDTVEEEEGKFNLMLMECSICNEIIHPGCLKIKESEGVVNDELPNCWECPKC [V6R]	bin 2
LPHTAVCLVCGEAGKEDTVEEEEGKFNFMLMECSICNEIIHPGCLKIKESEGVVNDELPNCWECPKC [L28F]	bin 3
LPHTADCLVCGEAGKEDTVEEEEGKFNLMLMECSICNEIIHPGCLKIKESEGVVNDELPNCWECPKC [V6D]	bin 2
LPHTAVCLVCGEAGKEDTVEEEEGKFNLMLMECSICNEIIHPGCLKIKESEGVVNDELCNCWECPKC [P59C]	bin 3
LPHTAVCLVCGEAGKEDTVEQEEGKFNLMLMECSICNEIIHPGCLKIKESEGVVNDELPNCWECPKC [E21Q]	bin 2
LPHTAVCLVCGEAGKEDTVEEEEGKFNLMLMECSICNEIIHPGCLKIKESENVVNDELPNCWECPKC [G52N]	bin 3
QPHTAVCLVCGEAGKEDTVEEEEGKFNLMLMECSICNEIIHPGCLKIKESEGVVNDELPNCWECPKC [L1Q]	bin 1
LPHTAVCLVCGEAGKEDTVEEEEGKFNLMLMECSICNEIIHPGCLKRKESEGVVNDELPNCWECPKC [I47R]	bin 2
LPHTAVCLVCGEAGKEDTVEEEEGKFNLMLMECSINNEIIHPGCLKIKESEGVVNDELPNCWECPKC [C36N]	bin 1
LPHTAVCLVCGEAGKEDTVEEEEGKFNLMLMECSICNEIIHPGCLKIKESEGVVNDELPNQWECPKC [C61Q]	bin 3
LPHTAVCLVCGEAGKEDTVEEEEGKFNLMLMEESICNEIIHPGCLKIKESEGVVNDELPNCWECPKC [C33E]	bin 1
LPHTAVCLVCGEAGKEDTVEEEEGKFNLMLMECSICNEIIHPGCPKIKESEGVVNDELPNCWECPKC [L45P]	bin 1
LPHTAVCLVSGEAGKEDTVEEEEGKFNLMLMECSICNEIIHPGCLKIKESEGVVNDELPNCWECPKC [C10S]	bin 2
LPHTAVCLVCGEAGKEDTVEEEEGKFNLMLMECSICNEIIHPGCLKIKYSEGVVNDELPNCWECPKC [E49Y]	bin 3
LPHTAVCLVCGEAGKEDTVEEEEGKFNLMLMECSIRNEIIHPGCLKIKESEGVVNDELPNCWECPKC [C36R]	bin 1
LPHTAVCLVCGEAGKEDTVEEEEGKRNLMLMECSICNEIIHPGCLKIKESEGVVNDELPNCWECPKC [F26R]	bin 3
LPHTAVCLVCGEAGKEDDVEEEEGKFNLMLMECSICNEIIHPGCLKIKESEGVVNDELPNCWECPKC [T18D]	bin 1
LPHTAVCLVCGEAGKEDTVEEEEGKFNLMLMECSICNEIIHPGCLKIKEWEGVVNDELPNCWECPKC [S50W]	bin 3
LPHTAVCLVCGEAGKEDTVEEEEYKFNLMLMECSICNEIIHPGCLKIKESEGVVNDELPNCWECPKC [G24Y]	bin 3
LPHTAVCLVCGEAGKEDTVEEEEGKFNLMLMECSICREIIHPGCLKIKESEGVVNDELPNCWECPKC [N37R]	bin 3
LPHTAVCLVCGEAGKEDTVEEEEGKFNLMLMECSICNEIFHPGCLKIKESEGVVNDELPNCWECPKC [I40F]	bin 1
LPHTAVCLVCGEAGKEDTVEEEEGKFNLMLMECSICNEIIHPGCLKIKESEGVVNDELPNCWECQKC [P65Q]	bin 1
LPHTAVCLVCGEAGKEDTVEEEEGKFNLMLMECSICNEIIHPGCLKIKESEGVVNDELPNWWECPKC [C61W]	bin 3
